experiment: Pharmacokinetic profile after single oral, intranasal and intravenous betahistine in beagle dogs, Example 5; assay type: in vivo; details: female, beagle, dog, in vivo, iv, 0.44 mg/kg
Quick reference: Cmax of the listed items.
// note: answer is a bare numeric in ng/mL

compound	quantity-unit	Cmax
CNCCc1ccccn1 [betahistine]	ng/mL	43.7

# evaluate next
Short answer for O=C(O)Cc1ccccn1 [2-PAA, 2-pyridylacetic acid] : Cmax was 722

* * *

experiment: Pharmacokinetic profile after single oral, intranasal and intravenous betahistine in beagle dogs, Example 5; format: in vivo; conditions: both sexes, beagle, dog, in vivo, iv, 0.44 mg/kg, Betahistine Plasma Concentration
measurement-label: concentration at 6 h (ng/mL)
// note: answer is a bare numeric in ng/mL

Short answer for CNCCc1ccccn1 [betahistine] : concentration at 6 h was 0.849

* * *

test: Pharmacokinetic profile after single oral, intranasal and intravenous betahistine in beagle dogs, Example 5; assay type: in vivo; settings: both sexes, beagle, dog, in vivo, po, 24 mg/kg, Betahistine Plasma Concentration
measurement-label: concentration at 0.333 h (ng/mL)
// note: answer is a bare numeric in ng/mL

Short answer for CNCCc1ccccn1 : concentration at 0.333 h was 15.5

* * *

Test: Pharmacokinetic profile after single oral, intranasal and intravenous betahistine in beagle dogs, Example 5
Format: in vivo
Settings: female, beagle, dog, in vivo, iv, 0.44 mg/kg, Betahistine Plasma Concentration
Method: In this study, the pharmacokinetic profile of betahistine was evaluated after a single dose administration of betahistine in male and female beagle dogs (age 5-7 months; weight of 5-11 kg, within a range of 3 kg for each sex) for three routes of administration: oral, intranasal, and intravenous. On Day 1 of the study, betahistine (BH) was delivered orally at a dose of 12 mg/kg, 24 mg/kg, or 48 mg/kg. Each treatment group comprised 8 animals (4 males and 4 females). […]
measurement-label: concentration at 3 h (ng/mL)
// note: answer is a bare numeric in ng/mL

Short answer for CNCCc1ccccn1 : concentration at 3 h was 0.095

* * *

experiment: Pharmacokinetic profile after single oral, intranasal and intravenous betahistine in beagle dogs, Example 5; type: in vivo; conditions: male, beagle, dog, in vivo, iv, 0.44 mg/kg
measurement-label: Vd (L/kg)
// note: answer is a bare numeric in L/kg

Short answer for CNCCc1ccccn1 : Vd was 32.1

* * *

test: Single ascending-dose clinical trial of intranasal betahistine in healthy volunteers (plasma pharmacokinetics, LC-MS/MS); details: both, human, plasma, inhaled or intranasal, 5 mg
measurement-label: Cmax (ng/mL)
// note: answer is a bare numeric in ng/mL

Short answer for CNCCc1ccccn1 : Cmax was 0.638

* * *

test: Pharmacokinetic profile after single oral, intranasal and intravenous betahistine in beagle dogs, Example 5; format: in vivo; settings: male, beagle, dog, in vivo, po, 48 mg/kg, Betahistine Plasma Concentration
measurement-label: concentration at 1 h
# number then unit; no other words

Short answer for CNCCc1ccccn1 : concentration at 1 h was 0.0802 µg/mL

* * *

Assay: Pharmacokinetic profile after single oral, intranasal and intravenous betahistine in beagle dogs, Example 5
Format: in vivo
Conditions: both sexes, beagle, dog, in vivo, po, 48 mg/kg, Betahistine Plasma Concentration
Experimental: In this study, the pharmacokinetic profile of betahistine was evaluated after a single dose administration of betahistine in male and female beagle dogs (age 5-7 months; weight of 5-11 kg, within a range of 3 kg for each sex) for three routes of administration: oral, intranasal, and intravenous. On Day 1 of the study, betahistine (BH) was delivered orally at a dose of 12 mg/kg, 24 mg/kg, or 48 mg/kg. Each treatment group comprised 8 animals (4 males and 4 females). […]
measurement-label: concentration at 0 h (ng/mL)
// note: answer is a bare numeric in ng/mL

Short answer for CNCCc1ccccn1 : concentration at 0 h was 0

* * *

experiment: Pharmacokinetic profile after single oral, intranasal and intravenous betahistine in beagle dogs, Example 5; format: in vivo; conditions: male, beagle, dog, in vivo, po, 24 mg/kg, Betahistine Plasma Concentration
measurement-label: concentration at 6 h (ng/mL)
// note: answer is a bare numeric in ng/mL

Short answer for CNCCc1ccccn1 : concentration at 6 h was 0.078

* * *

assay: Pharmacokinetic profile after single oral, intranasal and intravenous betahistine in beagle dogs, Example 5; format: in vivo; conditions: both sexes, beagle, dog, in vivo, iv, 0.44 mg/kg, Betahistine Plasma Concentration
measurement-label: concentration at 1 h (ng/mL)
// note: answer is a bare numeric in ng/mL

Short answer for CNCCc1ccccn1 [betahistine] : concentration at 1 h was 0.308

* * *

assay: Pharmacokinetic profile after single oral, intranasal and intravenous betahistine in beagle dogs, Example 5; assay type: in vivo; settings: both sexes, beagle, in vivo; dog, IV bolus BH 0.44 mg/kg, sex-combined, Day 15; read-out: AUC(0-t)
measurement-label: AUC(0-t) (ng·h/mL)
// note: answer is a bare numeric in ng·h/mL

Short answer for CNCCc1ccccn1 : AUC(0-t) was 23

* * *

test: Pharmacokinetic profile after single oral, intranasal and intravenous betahistine in beagle dogs, Example 5; type: in vivo; conditions: male, beagle, dog, in vivo, iv, 0.44 mg/kg, AUC(0-6)
measurement-label: AUC(0-t) (ng·h/mL)
// note: answer is a bare numeric in ng·h/mL

Short answer for CNCCc1ccccn1 [betahistine] : AUC(0-t) was 19.5

* * *

assay: Single ascending-dose clinical trial of intranasal betahistine in healthy volunteers (plasma pharmacokinetics, LC-MS/MS); settings: both, human, plasma, inhaled or intranasal, 10 mg
measurement-label: AUC(0-inf) (ng·h/mL)
// note: answer is a bare numeric in ng·h/mL

Short answer for CNCCc1ccccn1 [betahistine] : AUC(0-inf) was 0.697

* * *

experiment: Pharmacokinetic profile after single oral, intranasal and intravenous betahistine in beagle dogs, Example 5; type: in vivo; settings: beagle, in vivo; dog, oral BH 48 mg/kg, male, Day 1; read-out: Cmax
measurement-label: Cmax (ng/mL)
// note: answer is a bare numeric in ng/mL

Short answer for CNCCc1ccccn1 [betahistine] : Cmax was 102

* * *

experiment: Pharmacokinetic profile after single oral, intranasal and intravenous betahistine in beagle dogs, Example 5; format: in vivo; settings: male, beagle, dog, in vivo, po, 48 mg/kg, Betahistine Plasma Concentration
measurement-label: concentration at 0 h (ng/mL)
// note: answer is a bare numeric in ng/mL

Short answer for CNCCc1ccccn1 : concentration at 0 h was 0

* * *

assay: Pharmacokinetic profile after single oral, intranasal and intravenous betahistine in beagle dogs, Example 5; format: in vivo; settings: male, beagle, dog, in vivo, inhaled or intranasal, 5 mg/kg
measurement-label: Cmax
# number then unit; no other words

test-smiles	Cmax
O=C(O)Cc1ccccn1	3480 ng/mL

# evaluate next
Short answer for CNCCc1ccccn1 : Cmax was 598 ng/mL

* * *

Experiment: Pharmacokinetic profile after single oral, intranasal and intravenous betahistine in beagle dogs, Example 5
Type: in vivo
Settings: female, beagle, dog, in vivo, inhaled or intranasal, 17.7 mg/kg
Protocol: In this study, the pharmacokinetic profile of betahistine was evaluated after a single dose administration of betahistine in male and female beagle dogs (age 5-7 months; weight of 5-11 kg, within a range of 3 kg for each sex) for three routes of administration: oral, intranasal, and intravenous. On Day 1 of the study, betahistine (BH) was delivered orally at a dose of 12 mg/kg, 24 mg/kg, or 48 mg/kg. Each treatment group comprised 8 animals (4 males and 4 females). […]
Quick reference: AUC(0-inf) of the listed items.
// note: answer is a bare numeric in ng·h/mL

compound	measurement-label	quantity-unit	experimental-value
O=C(O)Cc1ccccn1 [2-PAA, 2-pyridylacetic acid]	AUC(0-inf)	ng·h/mL	14100

Short answer for CNCCc1ccccn1 [betahistine] : AUC(0-inf) was 302

* * *

experiment: Pharmacokinetic profile after single oral, intranasal and intravenous betahistine in beagle dogs, Example 5; type: in vivo; conditions: female, beagle, dog, in vivo, iv, 0.44 mg/kg, Betahistine Plasma Concentration
measurement-label: concentration at 0.167 h (ng/mL)
// note: answer is a bare numeric in ng/mL

Short answer for CNCCc1ccccn1 : concentration at 0.167 h was 14.8

* * *

experiment: Pharmacokinetic profile after single oral, intranasal and intravenous betahistine in beagle dogs, Example 5; format: in vivo; settings: both sexes, beagle, dog, in vivo, po, 12 mg/kg, Betahistine Plasma Concentration
measurement-label: concentration at 6 h (pg/mL)
// note: answer is a bare numeric in pg/mL

Short answer for CNCCc1ccccn1 [betahistine] : concentration at 6 h was 7.97

* * *

experiment: Pharmacokinetic profile after single oral, intranasal and intravenous betahistine in beagle dogs, Example 5; format: in vivo; conditions: both sexes, beagle, dog, in vivo, iv, 0.44 mg/kg, Betahistine Plasma Concentration
measurement-label: concentration at 5 min (ng/mL)
// note: answer is a bare numeric in ng/mL

Short answer for CNCCc1ccccn1 : concentration at 5 min was 50.9

* * *

assay: Single ascending-dose clinical trial of intranasal betahistine in healthy volunteers (plasma pharmacokinetics, LC-MS/MS); conditions: both, human, plasma, inhaled or intranasal, 40 mg
measurement-label: AUC(0-t) (ng·h/mL)
// note: answer is a bare numeric in ng·h/mL

Short answer for CNCCc1ccccn1 : AUC(0-t) was 3.53
